# Tested on: Escherichia coli
# run description: In vitro antibacterial activity expressed as MIC against E. coli(GC 1792) without pre-incubation in mouse serum
# Format: functional
metric: MIC (µg/mL)

Known results for compounds:
compound	MIC [µg/mL]
CC(C)C(=O)OCOC(=O)NC[C@H]1OCC[C@H]1SC1=C(C(=O)[O-])N2C(=O)[C@H]([C@@H](C)O)C2[C@H]1C.[Na+] (some centres undefined)	0.5
CCOC(=O)OCOC(=O)C1=C(S[C@@H]2CCO[C@@H]2CN)[C@H](C)C2[C@@H]([C@@H](C)O)C(=O)N12.Cl (some centres undefined)	0.5

P = CCOC(=O)OCOC(=O)C1=C(S[C@@H]2CCO[C@@H]2CNC(=O)OCOC(=O)C(C)C)[C@H](C)C2[C@@H]([C@@H](C)O)C(=O)N12 (some centres undefined)
Q = CCOC(=O)OCOC(=O)C1=C(S[C@@H]2CCO[C@@H]2CNC(=O)OC(C)OC(C)=O)[C@H](C)C2[C@@H]([C@@H](C)O)C(=O)N12 (some centres undefined)
R = CCCC(=O)OCOC(=O)NC[C@H]1OCC[C@H]1SC1=C(C(=O)[O-])N2C(=O)[C@H]([C@@H](C)O)C2[C@H]1C.[Na+] (some centres undefined)
S = CC(=O)OC(C)OC(=O)NC[C@H]1OCC[C@H]1SC1=C(C(=O)[O-])N2C(=O)[C@H]([C@@H](C)O)C2[C@H]1C.[Na+] (some centres undefined)
Descending sort on MIC required. API: response body holds the labels in the requested order.
P, Q, R, S
